Test system: 786-0
Assay: Anticancer activity against human 786-0 cells after 48 hrs
Type: functional
Conditions: 786-0, 48 h
measured parameter: TGI (µM)
Your answer is read as µM, so omit the unit and give the number.

Example entries begin here.
# molecule, TGI / µM
measured = [
    ("Cc1cc(O)c(C2=NN(c3ccc(S(N)(=O)=O)cc3)C(c3ccccc3O)C2)cc1Cl (centres undefined)", 4.21),
    ("Cc1cc(O)c(C2=NN(c3ccc(S(N)(=O)=O)cc3)C(c3ccccc3Cl)C2)cc1Cl (centres undefined)", 4.52),
    ("Cc1cc(O)c(C2=NN(c3ccc(S(N)(=O)=O)cc3)C(/C=C/c3ccccc3)C2)cc1Cl (centres undefined)", 12.5),
]

# lookup: COc1ccc(C2CC(c3cc(Cl)c(C)cc3O)=NN2c2ccc(S(N)(=O)=O)cc2)cc1OC (centres undefined) on 786-0, TGI = 5.04
